biological target: full length human TREX1 (Homo sapiens, UniProt Q9NSU2); construct: N-terminally His-Tev tagged full length human TREX1; His-Tev (His tag with TEV protease site) (N); test: TREX1 Biochemical Assay (fluorescence assay, degradation of dsDNA substrate); conditions: 150 pM TREX1, 60 nM dsDNA substrate, 25 minutes at room temperature; read-out: hTREX1 EC50
Sequence (Q9NSU2 whole entry): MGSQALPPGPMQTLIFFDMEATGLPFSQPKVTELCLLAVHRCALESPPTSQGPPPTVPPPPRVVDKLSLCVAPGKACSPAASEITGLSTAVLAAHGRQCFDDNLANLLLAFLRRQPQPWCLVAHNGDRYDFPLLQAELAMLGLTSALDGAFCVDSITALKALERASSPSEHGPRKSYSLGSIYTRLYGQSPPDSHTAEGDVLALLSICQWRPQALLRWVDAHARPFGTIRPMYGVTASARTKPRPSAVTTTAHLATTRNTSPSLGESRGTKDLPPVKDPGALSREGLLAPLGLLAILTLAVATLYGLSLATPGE
pEC50: −log10 of the molar value.
quantity kind: pEC50

[[record]]
compound = "O=C1NCc2cc(CN(Cc3ccccc3Cl)C(=O)c3cc(F)cc(F)c3)cnc21"
result = "5.00 to 6.00"

[[record]]
compound = "O=C(c1ccc(O)c(Br)c1)N(Cc1cccnc1)Cc1cc(Cl)cc(Cl)c1"
result = "< 5.00"

[[record]]
compound = "O=C(c1cc(F)cc(F)c1)N(Cc1cccnc1)Cc1ccc(Cl)cc1Cl"
result = "6.00 to 7.00"

[[record]]
compound = "O=C(c1cccc(F)c1)N(Cc1cccnc1)[C@H](CO)c1ccc(Cl)cc1Cl (single isomer, unassigned)"
result = "6.00 to 7.00"

[[record]]
compound = "O=C(O)c1ccc(CN(Cc2ccc(Cl)cc2Cl)C(=O)c2cccc(F)c2)cn1"
result = "6.00 to 7.00"

[[record]]
compound = "CC[C@H](c1ccc(Cl)cc1Cl)N(Cc1cccnc1)C(=O)c1cccc(F)c1 (single isomer, unassigned)"
result = "6.00 to 7.00"


// field: pEC50; key: "O=C(c1cccc(F)c1)N(Cc1ccccn1)Cc1ccc(Cl)cc1Cl" ; value = < 5.00

// field: pEC50; key: "O=C(c1ccc(O)c(C(F)(F)F)c1)N(Cc1cccnc1)Cc1cc(Cl)cc(Cl)c1" ; value = < 5.00

// field: pEC50; key: "O=C(O)c1ncc(CN(Cc2ccccc2Cl)C(=O)c2cc(F)cc(F)c2)cn1" ; value = 6.00 to 7.00

// field: pEC50; key: "CC[C@H](c1cccc(OC)c1C(F)(F)F)N(Cc1ccc(C(=O)O)nc1)C(=O)c1cc(F)cc(F)c1" ; value = > 7.00

// field: pEC50; key: "O=C(c1cccc(-c2ccccc2)c1)N(Cc1cccnc1)Cc1ccc(Cl)cc1Cl" ; value = < 5.00

// field: pEC50; key: "CC[C@H](c1cccc(OC)c1Cl)N(Cc1ccc(C(=O)O)nc1)C(=O)c1cc(F)cc(F)c1" ; value = > 7.00

---

Listed below: pEC50 values for each entry.
target: full length human TREX1 (Homo sapiens); construct: N-terminally His-Tev tagged full length human TREX1; His-Tev (His tag with TEV protease site) (N); made in house; host or cells: E. coli; test: TREX1 Biochemical Assay (fluorescence assay, degradation of dsDNA substrate); settings: 150 pM TREX1, 60 nM dsDNA substrate, 25 minutes at room temperature; read-out: hTREX1 EC50
pEC50: −log10 of the molar value.

[[record]]
compound = "COc1cc(C(=O)N(Cc2cccnc2)Cc2cc(Cl)cc(Cl)c2)ccc1F"
result = "< 5.00"

[[record]]
compound = "O=C(/C=C/c1ccco1)N(Cc1cccnc1)Cc1ccc(Cl)cc1Cl"
result = "< 5.00"

[[record]]
compound = "O=C(O)c1ncc(CN(Cc2cccc(Cl)c2Cl)C(=O)c2cc(F)cc(F)c2)cc1O"
result = "> 7.00"


// field: pEC50; key: "O=C(c1cc(F)cc(F)c1)N(Cc1cccnc1)[C@H](CCO)c1ccc(Cl)cc1Cl" ; value = > 7.00

// field: pEC50; key: "O=C(c1cc(Br)c(O)c(Br)c1)N(Cc1cccnc1)Cc1cc(Cl)cc(Cl)c1" ; value = < 5.00
